- System: HeLa cells
- test summary: Luciferase Protein Expression Assay in HeLa Cells
- Assay type: cell-based, Human
- protocol conditions: LNPs encapsulating Luciferase mRNA, 25 ng per well, N=4 wells; 5 h serum-free then 24 h; ONE-Glo
Counter-ions that a name gives are not always drawn.
readout kind: Average Relative Light Units ± Standard Deviation (Relative Light Units)
Numbers only; they are read as Relative Light Units.

Recorded Average Relative Light Units ± Standard Deviation for CC(C)CCC[C@@H](C)[C@H]1CC[C@H]2[C@@H]3CC=C4C[C@@H](OC(=O)N(CCCN)CCCCCCN)CC[C@]4(C)[C@H]3CC[C@]12C [SA83, dihydrochloride] on HeLa cells was 35394.8

The reported Average Relative Light Units ± Standard Deviation value, HeLa cells, for CC(C)CCC[C@@H](C)[C@H]1CC[C@H]2[C@@H]3CC=C4C[C@@H](SSCCC(=O)N(CCCC(C)(C)N)CCC(C)(C)N)CC[C@]4(C)[C@H]3CC[C@]12C [SA145, dihydrochloride] reads 36033.7

Fill in: HeLa cells Average Relative Light Units ± Standard Deviation for CC(C)CCC[C@@H](C)[C@H]1CC[C@H]2[C@@H]3CC=C4C[C@@H](OC(=O)N(CCCCNCCC(C)N)CCC(C)N)CC[C@]4(C)[C@H]3CC[C@]12C (stereo partly shown) [SA76, trihydrochloride] = 38232.8

So the reported Average Relative Light Units ± Standard Deviation for CC[C@H](CC[C@@H](C)[C@H]1CC[C@H]2[C@@H]3CC=C4C[C@@H](OC(=O)CCCC(=O)N(CCCN)CCCCCCCCN)CC[C@]4(C)[C@H]3CC[C@]12C)C(C)C.Cl.Cl [SA135] , on HeLa cells, turned out to be 27499.8

Summary: CC[C@H](CC[C@@H](C)[C@H]1CC[C@H]2[C@@H]3CC=C4C[C@@H](OC(=O)CCCCC(=O)N(CCCN)CCCCNCCCN)CC[C@]4(C)[C@H]3CC[C@]12C)C(C)C [SA90, trihydrochloride] , HeLa cells, Average Relative Light Units ± Standard Deviation = 9337.4

More entries:
Bench note, HeLa cells: CC(C)CCC[C@@H](C)[C@H]1CC[C@H]2[C@@H]3CC=C4C[C@@H](OC(=O)CCCCC(=O)N(CCCN)CCCCNCCCN)CC[C@]4(C)[C@H]3CC[C@]12C [SA89, trihydrochloride] , Average Relative Light Units ± Standard Deviation reads 8209.2

For the compound CC(C)CCC[C@@H](C)[C@H]1CC[C@H]2[C@@H]3CC=C4C[C@@H](OC(=O)CC(=O)N(CCCN)CCCCNCCCN)CC[C@]4(C)[C@H]3CC[C@]12C.Cl.Cl.Cl [SA59] , the measured Average Relative Light Units ± Standard Deviation on HeLa cells was 17590.1

Average Relative Light Units ± Standard Deviation of CC(C)CCC[C@@H](C)[C@H]1CC[C@H]2[C@@H]3CC=C4C[C@@H](OC(=O)CCCC(=O)N(CCCCCCCC(C)(C)N)CCC(C)(C)N)CC[C@]4(C)[C@H]3CC[C@]12C.Cl.Cl [SA141] , assay on HeLa cells, is 35801.9

Form: item CC[C@H](CC[C@@H](C)[C@H]1CC[C@H]2[C@@H]3CC=C4C[C@@H](OC(=O)CCCC(=O)N(CCC(C)N)CCC(C)N)CC[C@]4(C)[C@H]3CC[C@]12C)C(C)C (stereo partly shown) [SA156, dihydrochloride] ; test system HeLa cells; Average Relative Light Units ± Standard Deviation: 37662.9

Measured Average Relative Light Units ± Standard Deviation (HeLa cells), entry CC(C)CCC[C@@H](C)[C@H]1CC[C@H]2[C@@H]3CC=C4C[C@@H](OC(=O)CSSCC(=O)N(CCCN)CCCCNCCCN)CC[C@]4(C)[C@H]3CC[C@]12C [SA98, trihydrochloride] : 80.7

Reported HeLa cells Average Relative Light Units ± Standard Deviation for item CC(C)CCC[C@@H](C)[C@H]1CC[C@H]2[C@@H]3CC=C4C[C@@H](SSCCCCC(=O)N(CCCN)CCCCCCCCN)CC[C@]4(C)[C@H]3CC[C@]12C [SA110, dihydrochloride] was 14227
